# Tested on: A549
# assay.protocol: Antiproliferative activity against human A549 cells overexpressing EGFR assessed as reduction in cell viability at 1 to 60 uM incubated for 72 hrs by MTT assay
# Assay type: functional, cell-based
The source made the active and inactive calls. The rule behind the calls is not given here.
Outcome codes: active, inactive

> print(dat)
                                chem.smiles     label
1  Fc1cccc(COc2ccc(Nc3ncnc4[nH]c(-c5ccco5)nc34)cc2Cl)c1    active
2  Fc1cccc(COc2ccc(Nc3nccc4[nH]c(-c5ccco5)nc34)cc2Cl)c1  inactive
3  CS(=O)(=O)CCNCc1ccc(-c2nc3c(Nc4ccc(OCc5cccc(F)c5)c(Cl)c4)ccnc3[nH]2)o1  inactive
4  Fc1cccc(COc2ccc(Nc3ccnc4[nH]c(-c5ccco5)nc34)cc2Cl)c1    active
5  CS(=O)(=O)CCNCc1ccc(-c2nc3c(Nc4ccc(OCc5cccc(F)c5)c(Cl)c4)ncnc3[nH]2)o1    active

====

# assay.protocol: Drug uptake in human A549 cells overexpressing EGFR at 1 uM measured after 48 hrs by LC-MS/MS analysis
# Format: ADME, cell-based
# measurement.conditions: a549, 48 h
Consider the following molecules and their measured Drug uptake readings.
endpoint.label: Drug uptake

> print(dat)
                                chem.smiles  endpoint.label          reported.result
1  Fc1cccc(COc2ccc(Nc3ccnc4[nH]c(-c5ccco5)nc34)cc2Cl)c1     Drug uptake  0.04 nmol/100,000 cells
2  CS(=O)(=O)CCNCc1ccc(-c2ccc3ncnc(Nc4ccc(OCc5cccc(F)c5)c(Cl)c4)c3c2)o1     Drug uptake  0.02 nmol/100,000 cells
3  CS(=O)(=O)CCNCc1ccc(-c2nc3c(Nc4ccc(OCc5cccc(F)c5)c(Cl)c4)ncnc3[nH]2)o1     Drug uptake  0.01 nmol/100,000 cells

====

# system.tested: Receptor tyrosine-protein kinase erbB-2 (Homo sapiens) (UniProt P04626)
# Sequence (P04626 whole entry, the tested form may be a part): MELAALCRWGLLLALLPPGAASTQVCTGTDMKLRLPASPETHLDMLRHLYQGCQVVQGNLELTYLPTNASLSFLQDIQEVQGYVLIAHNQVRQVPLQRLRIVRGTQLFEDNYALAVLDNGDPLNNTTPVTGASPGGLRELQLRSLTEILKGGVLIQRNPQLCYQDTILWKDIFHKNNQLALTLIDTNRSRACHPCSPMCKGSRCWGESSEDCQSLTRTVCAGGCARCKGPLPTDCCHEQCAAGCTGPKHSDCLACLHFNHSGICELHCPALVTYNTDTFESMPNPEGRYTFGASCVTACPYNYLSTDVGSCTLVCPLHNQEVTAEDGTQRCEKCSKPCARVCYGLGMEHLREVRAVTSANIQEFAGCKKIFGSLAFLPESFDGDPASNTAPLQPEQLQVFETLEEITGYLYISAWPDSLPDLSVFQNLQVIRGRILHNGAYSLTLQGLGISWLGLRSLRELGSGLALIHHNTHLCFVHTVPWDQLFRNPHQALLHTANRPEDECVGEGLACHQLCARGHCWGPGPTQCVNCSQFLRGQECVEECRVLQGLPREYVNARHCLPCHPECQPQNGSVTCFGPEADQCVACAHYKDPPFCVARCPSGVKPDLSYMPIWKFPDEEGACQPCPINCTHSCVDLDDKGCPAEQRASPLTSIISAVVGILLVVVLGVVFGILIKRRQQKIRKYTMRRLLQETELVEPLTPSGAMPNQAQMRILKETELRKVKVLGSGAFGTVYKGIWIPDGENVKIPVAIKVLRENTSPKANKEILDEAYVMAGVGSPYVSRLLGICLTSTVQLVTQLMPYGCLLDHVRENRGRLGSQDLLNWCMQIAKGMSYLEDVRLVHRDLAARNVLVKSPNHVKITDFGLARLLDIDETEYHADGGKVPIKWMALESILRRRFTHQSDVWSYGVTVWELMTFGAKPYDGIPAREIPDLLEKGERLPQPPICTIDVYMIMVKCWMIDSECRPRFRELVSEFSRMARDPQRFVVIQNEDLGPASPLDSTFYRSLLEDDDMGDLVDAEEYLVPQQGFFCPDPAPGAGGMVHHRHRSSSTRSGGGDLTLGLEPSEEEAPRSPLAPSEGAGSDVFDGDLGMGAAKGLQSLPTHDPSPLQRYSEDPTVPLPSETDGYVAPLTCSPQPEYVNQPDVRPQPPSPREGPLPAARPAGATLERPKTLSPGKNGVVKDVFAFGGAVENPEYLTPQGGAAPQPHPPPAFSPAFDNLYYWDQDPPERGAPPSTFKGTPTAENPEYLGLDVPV
# assay.protocol: Inhibition of human recombinant GST-tagged HER2 (catalytic domain 676 to end residues) autophosphorylation expressed in baculovirus infected Sf9 cells using poly( Glu, Tyr) 4:1 as substrate at 1 uM incubated for 60 mins by ELISA relative to control
Listed here are compounds together with their documented inhibition.
endpoint.label: inhibition (%)

> print(dat)
                                   compound  reported.result
1  Fc1cccc(COc2ccc(Nc3ccnc4[nH]c(-c5ccco5)nc34)cc2Cl)c1               24
2  Fc1cccc(COc2ccc(Nc3ncnc4[nH]c(-c5ccco5)nc34)cc2Cl)c1               51
3  CS(=O)(=O)CCNCc1ccc(-c2ccc3ncnc(Nc4ccc(OCc5cccc(F)c5)c(Cl)c4)c3c2)o1 [LAPATINIB]               86
4  Fc1cccc(COc2ccc(Nc3nccc4[nH]c(-c5ccco5)nc34)cc2Cl)c1               82
5  CS(=O)(=O)CCNCc1ccc(-c2nc3c(Nc4ccc(OCc5cccc(F)c5)c(Cl)c4)ncc(F)c3[nH]2)o1                0

====

# assay.protocol: Cmax in C57BL/6N mouse at 34 micromol/kg, po measured upto 24 hrs by LC-MS/MS analysis
# Format: ADME, organism-based
# Parameters: route oral
# measurement.conditions: in vivo, 34 µmol/kg
endpoint.label: Cmax

> print(dat)
                                chem.smiles  reported.result
1  CS(=O)(=O)CCNCc1ccc(-c2nc3c(Nc4ccc(OCc5cccc(F)c5)c(Cl)c4)ncnc3[nH]2)o1            70 nM
2  Fc1cccc(COc2ccc(Nc3ccnc4[nH]c(-c5ccco5)nc34)cc2Cl)c1           300 nM
3  CS(=O)(=O)CCNCc1ccc(-c2ccc3ncnc(Nc4ccc(OCc5cccc(F)c5)c(Cl)c4)c3c2)o1          1470 nM
